target: BRAF G466V (Homo sapiens, UniProt P15056, G466V); construct: expressed in transfected cells; test: Cellular assay of target protein degradation, T-Rex 293 cells stably transfected with HA-BRAF G466V (HA immunofluorescence, high content imaging); type: cell-based; conditions: half maximal degradation, T-Rex 293 HA-BRAF G466V; read-out: BRaf G466V DC50
Sequence (P15056 whole entry G466V): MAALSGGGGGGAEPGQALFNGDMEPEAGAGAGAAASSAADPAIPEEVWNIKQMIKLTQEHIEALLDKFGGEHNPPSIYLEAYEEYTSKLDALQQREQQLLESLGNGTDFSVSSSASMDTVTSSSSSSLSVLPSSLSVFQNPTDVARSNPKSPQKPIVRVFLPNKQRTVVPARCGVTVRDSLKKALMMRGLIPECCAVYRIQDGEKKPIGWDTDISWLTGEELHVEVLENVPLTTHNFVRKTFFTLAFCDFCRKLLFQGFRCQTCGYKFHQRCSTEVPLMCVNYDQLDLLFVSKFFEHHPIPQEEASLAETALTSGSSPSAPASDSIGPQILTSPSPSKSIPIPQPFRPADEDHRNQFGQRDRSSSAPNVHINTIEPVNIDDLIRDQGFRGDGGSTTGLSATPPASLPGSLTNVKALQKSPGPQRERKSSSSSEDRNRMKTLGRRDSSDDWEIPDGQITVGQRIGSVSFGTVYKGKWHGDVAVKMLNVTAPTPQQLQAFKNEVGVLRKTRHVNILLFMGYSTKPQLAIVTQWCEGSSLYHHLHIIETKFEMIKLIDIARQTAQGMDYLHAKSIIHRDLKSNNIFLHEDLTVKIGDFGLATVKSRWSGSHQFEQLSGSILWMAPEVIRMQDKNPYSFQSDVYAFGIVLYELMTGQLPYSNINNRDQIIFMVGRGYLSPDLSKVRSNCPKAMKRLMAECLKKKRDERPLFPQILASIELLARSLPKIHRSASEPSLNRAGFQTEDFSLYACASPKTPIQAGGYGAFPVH
readout_type: DC50

query: For the compound COc1cc(N2CCN(CC3CCN(c4ccc(-c5cnc6[nH]cc(C(=O)c7c(F)ccc(NS(=O)(=O)N8CC[C@@H](F)C8)c7F)c6c5)cc4)CC3)CC2)ccc1C(=O)N[C@H]1CCC(=O)NC1=O , report DC50.
result: 1 to 10 nM

query: For the compound COc1cc(-c2cnc3[nH]cc(C(=O)c4c(F)ccc(NS(=O)(=O)N5CC[C@@H](F)C5)c4F)c3c2)ccc1N1CCC(CN2CCC(c3ccc4c(c3)CN([C@H]3CCC(=O)NC3=O)C4=O)CC2)CC1 , report DC50.
result: < 1 nM

query: For the compound CCCS(=O)(=O)Nc1ccc(F)c(C(=O)c2c[nH]c3ncc(-c4ccc(N5CCN(CC6CCN(c7ccc8c(c7)CN(C7CCC(=O)NC7=O)C8=O)CC6)CC5)cc4)cc23)c1F (stereo not drawn) , report DC50.
result: 1 to 10 nM
